Test: COS7 lysate on small-molecule microarray, probe aHis, 635 nm (AID 1123);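 further: z-score combines 667nm fluorescence intensity with signal-to-noise per printed compound spot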
Conditions: COS7 cell lysate, fluorescence, higher = more signal
Could you label it Yes if measured composite z-score is 1 or higher, and No otherwise?

[
  {
    "COMPOUND": "C=CCOC(=O)[C@@H]1[C@H]2C(=O)O[C@H](c3ccccc3)[C@H](c3ccccc3)N2[C@H](c2ccc(OCCOC(=O)[C@H]3C[C@H]4C(=O)N[C@@H](CCCCNC(C)=O)C(=O)N4[C@H]3c3cccc(OCCO)c3)cc2)[C@@]12C(=O)Nc1ccc(I)cc12",
    "LABEL VALUE": "Yes"
  },
  {
    "COMPOUND": "CCOC(=O)C[C@H]1[C@H](OC(=O)Cc2ccc3c(c2)OCO3)[C@@H](NC(=O)Cc2ccc(OC)cc2)c2cc(OCCCO)ccc2N1C(=O)c1ccccc1",
    "LABEL VALUE": "No"
  },
  {
    "COMPOUND": "COCCOC(=O)N1C(=O)[C@@]2(c3cc(C#CC4(O)CCCCCC4)ccc31)[C@H](C(=O)N1CCCCCCC1)[C@H]1C(=O)O[C@H](c3ccccc3)[C@H](c3ccccc3)N1[C@@H]2c1ccc(OCCO)cc1",
    "LABEL VALUE": "Yes"
  },
  {
    "COMPOUND": "CC(C)CNC(=O)[C@@H]1c2ccccc2C(=O)N(Cc2cc(F)cc(C(F)(F)F)c2)[C@H]1c1ccc(CO)cc1",
    "LABEL VALUE": "Yes"
  }
]

Below: the item to evaluate.
**Q:** I'd appreciate it if you could say whether CC[C@@H]1[C@H]2C3C(=O)N(CC)C(=O)C3CC(=O)[C@H]2[C@H](c2ccc(C)cc2)N1S(=O)(=O)c1ccc(C)cc1 (stereo partly specified) has composite z-score at least equal to 1.
**A:** Yes

Source of measurements: PubChem BioAssay
